experiment: yeast display, Sf9 membrane polyspecificity reagent, FACS + sequencing; frameworks hold sequencing errors
Measurement label: polyreactivity (PSR sort gate)

QVQLVESGGGLVQAGGSLRLSCAASGRTLGGYAMGWYRQAPGKERELVAVITWNGGSTYADSVKGRFTISRDNAKNTVYLQMNSLKPEDTAVYYCAADRFNKPYYYWGQGTQVTVSS
high polyreactivity
QVQLVESGGGLVQAGGSLRLSCAASGFIFVHNAMGWYRPAPGKERELVAAIRSRGGSTYYADSVKGRFTISRDNAKNTVYLQMNSLKPEDTAVDDCAADGAVVSSSRKFGYWGQGTQVTVSS
low polyreactivity
QVQLVESGGGLVQAGGSLRLSCAASGSIFFSNAMGWYSPAPGKEREIVAGIRSGGITNYADSVKGRFTISRDNAKNTVYLEMNSLKPEDTAVYYCAKLNDHGRYAYAFDYWGQGTQVTVSS
low polyreactivity
QVQLVESGGGLVQAGGSLRLSCAASGITFQSNTMGCYRQAPGKERELVAAITWTGGRTYYADSVKGRFTISRDNAKNTVYLQMNSLKPEDTAVYYCNADGYAIGYNGKLDYWGQGTQVTVSS
high polyreactivity
QVQLVESGGGLVQAGGSLRLSCAASGRTFYLYAMGWYRQAPGKEREFVAAISKRGGSTYYADSVKGRFTISRDNAKNTVYLQMNSLKPEDTAVYYCAAEVFRYRLNQTPTYRGDYWGQGTQVTVSS
high polyreactivity
QVQLVESGGGLVKAGGSLRLSCAASGSTFWYNAMGCYRQAPRKERELVAAITRGASTNYADSVKGRFTISRDNAKNTVYLQMNCLKPEDTAVYYCAGGPARWKGYYWGQGTQVTVSS
high polyreactivity
QVQLVESGGGLVQAGGSLRLSCAASGSTFSPYAMGWYRQAPGKERELVADISWPGGTTYYADSVKGRFTISRDNAKNTVYLQMNSLKPEDTAVYYCAVTYWDYTFQITYEYWGQGSQVTVSS
low polyreactivity
QVQLVESGGGLVQAGGSLRLSCAASGSIFTPYAMGWYRQAPGKERELVATISWSGGRTYYADSVKGRFTISRDNAMYTVYLQMYSLKPEDTAVYYCAARGYSSEYDYWGQGTQVTVSS
high polyreactivity

Query :: Look up polyreactivity (PSR sort gate) for this sequence: `QVQLVETGAGLVQAGGSLRLSCAPSGNTLGPYAKGWYRQGPGKERELVAAITWSGGITDYADSVKGRLTISRDNAKKTVYLQMNSLKPEDTAVYYCATKLTYTLTSGAYAYDYWGQGTQVTVSS`
Result :: low polyreactivity

Query :: Follow-up item: `QVQLVESGGGLVQAGGSLRLSCAASGSTFCDNAMGWYRQAPGNERELVAAISMSGGRTYYADSVKGRFTISRDNAKNTVYLQMNSLKPEDTAVYYCAAVGNRRYYFGYDYWGQGSQVTVSS`
Result :: high polyreactivity

Query :: What about this sequence? `QVQLVESGGGLVQAGGSLRLSCAASGIIFEGYAMGWYRQAPGKERELVATITSGGITYYADSVKGRFTISRDNAKNTVYLQMNSLKPEDTAVYYCAADNEDIGSEDSDYGYDYWGQGTQVTVSS`
Result :: low polyreactivity

###

experiment: yeast display, Sf9 membrane polyspecificity reagent, FACS + sequencing; frameworks hold sequencing errors
Measurement label: polyreactivity (PSR sort gate)

For orientation, consider the following solved cases.
QVQLVESGGGLVQAGGSLRLSCAASGITFYEYAMGWYRQAPGKEREFVAAIDDGDSSTYYADSVKGRFTISRDNAKNTVYLQMHSLKPEDTAVYYCNADPYYVYSLNWGDFWGQGTQVTVSS
low polyreactivity
QVQLVESGGGLVQAGGSLRLSCAASGSTIRNYAMGWYRQAPGKERELVAAISSGGRTYYADSVKGRFTISRDNAKNTVYLQMNSLKPEDTAVYYCKGRSYSRMYYWGQGTQVTVSS
high polyreactivity
QVQLVESGGGLDQAGGSLRLSCAASGFIFYRYVMGWYRQAPGKERELVATISSGGSTNYADSVKGRFTISRDNAKNTVYLQMNSLKPEDTAVYYCAKRRYFYNYYEYDYWGQGTQVTVSS
high polyreactivity
QVQLVESGGGLVQAGGSLRLSCAASGRIFWINAMGWYRQATGKERELVATISSGSTSYADSVKGRFTISRDNAKNTVYLQMNSLKPEDTAVYYCAVTLRYTRSGAYDYWGQGTQVTVSS
low polyreactivity

Now for another entry.
Query :: What measured polyreactivity (PSR sort gate) goes with `EVQLVESRGGLVQAGGSLRLSCAASGSILVGYAMGWYRQAPGKERELVAAISFSGGSTYYADSVKGRFTISRDNAKNTVFLQLNSLKPEDTAVYYCASKRRVWIFYSSSDDYWGQGTQVTVSS` ?
Result :: low polyreactivity

###

assay: yeast display, Sf9 membrane polyspecificity reagent, FACS + sequencing; frameworks hold sequencing errors
Measurement label: polyreactivity (PSR sort gate)

QVQLVESGGGLVQAGGSLRLSCAASRFYTMGWYRQAPGKERELVAAISWSGGDTYYADSVKGRFTISRDNAKNTVYLQMNSLKPVDTAVYYRAKKTIGSYVHEPYYYWGQGTQVTVSS
low polyreactivity
QVQLVESGGGVVQAGGTLRLSCAASGSLFPYNVMGWYRQAPGKERELVAVITGSTGRTYYADSVKGRFTISRDNAKNTVYLQMNSLKPEDTAVYYCAKRSYWAPYDYWGQGTQVTVSS
high polyreactivity
QDQLVESRGGLVQAGRSLRISCAASGFIFYNYGMGWYRQAPGKEREFVAAITKRGGRTYYADSVKGRFTISRDYAKNTVYLQMTSLKPEDTAVYYCNKAIRQDRWVQEEDYWGQGTQVTVSS
high polyreactivity
QVQLVESGGGLVQAGGSLRLSCAASGFTFGVYAMGWYRQAPGKERELVAAISSTGGSTYYADSVKGRFRISRDNAKNTVYLQMKSLKPEDTAVYYCAADPYPEYIRYLPGVVYWGQGTQVTVSS
low polyreactivity

Query :: Given `QVQLVESGGGVVQAGGSLRLSCAASGRTFGSNAMGWYRQAPGKERELVAGITTSGGSTNYADSVKGRFTISRDNAKNTVYLQMNSLKPEETAVYFCAVANYGIGYPHYIFDYWGQGTQVTVSS` , state its recorded polyreactivity (PSR sort gate).
Result :: low polyreactivity

###

assay: yeast display, Sf9 membrane polyspecificity reagent, FACS + sequencing; frameworks hold sequencing errors
Measurement label: polyreactivity (PSR sort gate)

QVQLVESGGGLVQAGGSLRLSCAATGRIFTTYAMGWYRQAPGKERELVAAITSGGGTYYADSVKGRFTISRDNAKNTVYLQMNSLKPEDTAVYYCNADYSADYYWYYYCGQGTQVTVSS
low polyreactivity
QVQLVESGGGLVQAGGSLRLSCAASGRISYLYTMGWYRQAPGKERELVAAIRWRDGSTYYADSVKGRFTISRDNAKNTVYLQMNSLTPEDTAVYYCAATPVGFYWYDYWGQGTQVTVSS
low polyreactivity
QVQLVESGGGLVQAGGSLRLSCAASGRTFGIYVMGWYRQAPGKERELVAAIRGGGTTYYADSVKGRFTISRDNANNTVYLQMNSLKPEDTAVYYCAAESRYQRYDYWGQGTQVTVSS
high polyreactivity
QVQLVESGGGLVQAGGSLRLSCAASGSNIDGYAMGRYRQAPGKEREFLAAISFSSASTYYADSVKGRFTISRDNAKNSVYLQMNSLKPEDTAVYYCNADFFESGGSIEYDSSGQGTQVTVSS
low polyreactivity
QVQLVESGGGLVQAGGSLRLSCAACGSIFIGNAMGWYRQAPGKERELVAVISKGGGRTYYADSVKGRFTISRDNAKNTVYLKMNSLKPEDTAVYFCNTRNPESGDYWGQGTQVTVSS
high polyreactivity
QVQLVESGGGLVQPGGILRLSCAASGYTFQVYAMGWYRQAPGKEREMVASIRWRGGRTYYADSVKGRFTISRDNAKNTVYLQMNSLKPEDTAVYYCAARQYVIYQTYYTYYYWGQGTQVSVSS
high polyreactivity
QVQLVESGGGLVQAGGSLRLSCAASGSSFVLYAMGWYRQAPGKERELVAAISLSVGSTYYADSVKGRFTISRDNAKNTVYLQMNSLKPEDTAVYDCNARSSIVSYYWYHYWTREFDYWGQGTQVTVSS
low polyreactivity
QVQLLESGGGLVQAGGSLRLSCAASGSTFGYYAMGWYRQAPGKERELVAAITRSGSSTYYADSVKGRFTISRDNAKNTVYLQMNSLKPEDTAVYYCAAEARYWIYEYDYWGQGTQVTGSS
high polyreactivity

Query :: # input sequence: `QVQLVESGGGLVQAGGSLRLSCAASGSIFVGYDMGWYRQAPGKEREWVAAITSSGGGSTYYADSVKGRFTISRDNAKNTVYLQMNSLKPEDTAVYYCAARTSLWWFLKYDYWGQGTQVTVSS` ; wanted: its polyreactivity (PSR sort gate)
Result :: low polyreactivity

Query :: // same read-out, input: `QVQLVESGGGLVQAGGSLRLSCAASGFILGYYVMGWYRQAPGKERELVAAISSGGRTYYADSVKGRFTISRDNAKNTVYLQMNSLKPEDTAVYYCNAYAPRRRFDYWGQGTQVTVSS`
Result :: high polyreactivity

Query :: Here is the next sequence: `QVQLVESGGGLVQAGGSLRLSCAASGSIFRTNAMGWYRQAPGKERELVAAISSGDRTYYADSVKGRFTISRDNAKNTVYLQMNSLKPEDTAVYYCAARGYSATVYAGTYDYWGQGTQVTVSS`
Result :: low polyreactivity

Query :: Entry to check: `QVQLVESGGVLVQAGGSLRLSCAASVGIFDYYTMGWYRQAPGKERELVAAISASGGITYYADSVKGRFTISRDNANNTVYLQMNSMKPEDTAVYYCAAGVRNDYWWYYYWGQGTQVTVSS`
Result :: high polyreactivity

Query :: Moving on to `QVQHVESGGGLVQAGGSLRLSCAASGGIFSIYTRGWYRQAPGKERELVAAITSGGNTNYADSVKGRFTISRDNAKNTVYLQMNSLKPEDTAVYYCAKTYTEYSVTRSGARMDYWGQGTQVTVSS`
Result :: low polyreactivity

Query :: Field entry: `QVQLVESGGGLVQAGGSLRLSCAASGFTFGYYAMGWYRQATGKERELVATITGSGVRTYYADSLKGRFTISRDNAKNSVYLQMNSLKPEDTAVYYCNKVFSIPWQGVRFDYWGQGTQVTVSS`
Result :: high polyreactivity

Query :: Now try `QVQLVESGGGLVQAGGSLRLSCAASGRIFRYNTMGWYRQAPGKEREFVAAITQRGVNTYYADSVKGRFTISRDNAKNTVYLQLNSLKPEDTAVYYCNAKRYSYWIYRAYDYWGQGTQVTVSS` .
Result :: low polyreactivity

Origin of values: the nanobody polyreactivity screen of Harvey et al. (2022)
